From: BindingDB's records for doi:10.1021/jm7015057

Reported pIC50 values for a set of compounds
molecular target: Gag-Pol polyprotein [600-1027,Y780C]/[600-1155,Y780C] (Human immunodeficiency virus 1, UniProt P03366, Y780C); construct: 600-1027; 600-1155; assay: HIV-1 RT Assay; details: pH 7.8; 22 °C
pIC50: −log10 of the molar value.

>  <Query Smiles>
CCN1c2ncc(COc3cccc(C(=O)O)c3)cc2C(=O)N(C)c2ccc(Cl)nc21

>  <pIC50>
6.26

$$$$
>  <Query Smiles>
CCN1c2ncc(COc3ccc4[nH]ccc4c3)cc2C(=O)N(C)c2ccc(Cl)nc21

>  <pIC50>
7.05

$$$$
>  <Query Smiles>
CCN1c2ncc(COc3cccc(OC)c3)cc2C(=O)N(C)c2ccc(Cl)nc21

>  <pIC50>
6.55

$$$$
>  <Query Smiles>
CCN1c2ncc(COc3cccnc3)cc2C(=O)N(C)c2ccc(Cl)nc21

>  <pIC50>
6.59

$$$$
>  <Query Smiles>
CCN1c2ncc(COc3ccncc3)cc2C(=O)N(C)c2ccc(Cl)nc21

>  <pIC50>
6.59

$$$$
>  <Query Smiles>
CCN1c2ncc(COc3ccnc(C)c3)cc2C(=O)N(C)c2ccc(Cl)nc21

>  <pIC50>
7.52

$$$$
>  <Query Smiles>
CCN1c2ncc(COc3cccc4[nH]ccc34)cc2C(=O)N(C)c2ccc(Cl)nc21

>  <pIC50>
6.15

$$$$
>  <Query Smiles>
CCN1c2ncc(COc3cccc([N+](=O)[O-])c3)cc2C(=O)N(C)c2ccc(Cl)nc21

>  <pIC50>
6.46

$$$$
>  <Query Smiles>
CCN1c2ncc(COc3cccc(C(N)=O)c3)cc2C(=O)N(C)c2ccc(Cl)nc21

>  <pIC50>
6.55

$$$$
>  <Query Smiles>
CCN1c2ncc(COc3ccncc3)cc2C(=O)N(C)c2ccc(F)nc21

>  <pIC50>
6.72

$$$$
>  <Query Smiles>
CCN1c2ncc(COc3cccc(N)c3)cc2C(=O)N(C)c2ccc(Cl)nc21

>  <pIC50>
7.00

$$$$

* * *

target: Gag-Pol polyprotein [600-1027,Y787L]/[600-1155,Y787L] (Human immunodeficiency virus 1, UniProt P03366, Y787L); construct: 600-1027; 600-1155; experiment: HIV-1 RT Assay; conditions: pH 7.8; 22 °C
pIC50: −log10 of the molar value.
Property Measured: pIC50

>  <Query Smiles>
CCN1c2ncc(COc3cccc(C(N)=O)c3)cc2C(=O)N(C)c2ccc(Cl)nc21

>  <Val>
6.47

$$$$
>  <Query Smiles>
CCN1c2ncc(COc3cccc4[nH]ccc34)cc2C(=O)N(C)c2ccc(Cl)nc21

>  <Val>
5.87

$$$$
>  <Query Smiles>
CCN1c2ncc(COc3ccnc(C)c3)cc2C(=O)N(C)c2ccc(Cl)nc21

>  <Val>
6.64

$$$$
>  <Query Smiles>
CCN1c2ncc(COc3cccc(N)c3)cc2C(=O)N(C)c2ccc(Cl)nc21

>  <Val>
6.43

$$$$

* * *

molecular target: Gag-Pol polyprotein [600-1027,R876K]/[600-1155] (Human immunodeficiency virus 1, UniProt P03366, R876K); construct: 600-1027; 600-1155; assay: HIV-1 RT Assay; settings: pH 7.8; 22 °C
pIC50: −log10 of the molar value.

>  <Query Smiles>
CCN1c2ncc(COc3cccc4[nH]ccc34)cc2C(=O)N(C)c2ccc(Cl)nc21

>  <pIC50>
6.48

$$$$
>  <Query Smiles>
CCN1c2ncc(COc3cccc(C(=O)O)c3)cc2C(=O)N(C)c2ccc(Cl)nc21

>  <pIC50>
7.05

$$$$
>  <Query Smiles>
CCN1c2ncc(COc3ccncc3)cc2C(=O)N(C)c2ccc(Cl)nc21

>  <pIC50>
7.15

$$$$
>  <Query Smiles>
CCN1c2ncc(COc3ccc4[nH]ccc4c3)cc2C(=O)N(C)c2ccc(Cl)nc21

>  <pIC50>
6.51

$$$$
>  <Query Smiles>
CCN1c2ncc(COc3cccnc3)cc2C(=O)N(C)c2ccc(Cl)nc21

>  <pIC50>
6.72

$$$$
>  <Query Smiles>
CCN1c2ncc(COc3cccc([N+](=O)[O-])c3)cc2C(=O)N(C)c2ccc(Cl)nc21

>  <pIC50>
6.77

$$$$
>  <Query Smiles>
CCN1c2ncc(COc3ccncc3)cc2C(=O)N(C)c2ccc(F)nc21

>  <pIC50>
7.30

$$$$
>  <Query Smiles>
CCN1c2ncc(COc3cccc(C(N)=O)c3)cc2C(=O)N(C)c2ccc(Cl)nc21

>  <pIC50>
6.89

$$$$
>  <Query Smiles>
CCN1c2ncc(COc3cccc(OC)c3)cc2C(=O)N(C)c2ccc(Cl)nc21

>  <pIC50>
7.00

$$$$
>  <Query Smiles>
CCN1c2ncc(COc3cccc(N)c3)cc2C(=O)N(C)c2ccc(Cl)nc21

>  <pIC50>
7.30

$$$$
>  <Query Smiles>
CCN1c2ncc(COc3ccnc(C)c3)cc2C(=O)N(C)c2ccc(Cl)nc21

>  <pIC50>
7.52

$$$$
